Catalogue of inhibition values
system_name: UniProtKB P0DMS8
Sequence (P0DMS8 whole entry): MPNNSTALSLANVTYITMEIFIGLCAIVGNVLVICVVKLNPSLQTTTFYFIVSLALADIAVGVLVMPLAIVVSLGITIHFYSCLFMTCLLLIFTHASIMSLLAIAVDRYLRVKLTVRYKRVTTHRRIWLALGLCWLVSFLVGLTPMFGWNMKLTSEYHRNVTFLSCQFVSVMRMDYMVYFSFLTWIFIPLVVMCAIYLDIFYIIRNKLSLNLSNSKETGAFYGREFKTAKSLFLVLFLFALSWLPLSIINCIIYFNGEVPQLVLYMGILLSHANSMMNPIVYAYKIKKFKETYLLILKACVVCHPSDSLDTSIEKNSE
test_method_notes: Displacement of [3H]PSB11 from recombinant human adenosine receptor A3 expressed in CHO cell membranes at 1 uM
Just the number please, in %, no unit attached.

Below, 4 molecules whose answers are already recorded.
- molecular_string: "CCn1c(=O)c2c(nc3n2CCCN3c2ccc(O)cc2)n(CC)c1=O"
  inhibition (%): 1
- molecular_string: "Cn1c(=O)c2c(nc3n2CCCN3CCc2ccc(OCCN3CCCCC3)cc2)n(C)c1=O"
  inhibition (%): 1
- molecular_string: "CCCCn1c(=O)c2c(nc3n2CCCN3c2ccc(OCCN3CCOCC3)cc2)n(CCCC)c1=O"
  inhibition (%): 38
- molecular_string: "CCCCn1c(=O)c2c(nc3n2CCCN3c2ccc(OCCN3CCCCC3)cc2)n(CCCC)c1=O"
  inhibition (%): 48

What does the data say about its inhibition? Entry: CCCCn1c(=O)c2c(nc3n2CCCN3c2ccc(OCCN3CCCC3)cc2)n(CCCC)c1=O
48

Another molecule to check: Cn1c(=O)c2c(nc3n2CCCN3CCc2ccc(OCCN3CCOCC3)cc2)n(C)c1=O
-3

----------
system_name: Adenosine receptor A1 (Rattus norvegicus)
Sequence (P25099 whole entry): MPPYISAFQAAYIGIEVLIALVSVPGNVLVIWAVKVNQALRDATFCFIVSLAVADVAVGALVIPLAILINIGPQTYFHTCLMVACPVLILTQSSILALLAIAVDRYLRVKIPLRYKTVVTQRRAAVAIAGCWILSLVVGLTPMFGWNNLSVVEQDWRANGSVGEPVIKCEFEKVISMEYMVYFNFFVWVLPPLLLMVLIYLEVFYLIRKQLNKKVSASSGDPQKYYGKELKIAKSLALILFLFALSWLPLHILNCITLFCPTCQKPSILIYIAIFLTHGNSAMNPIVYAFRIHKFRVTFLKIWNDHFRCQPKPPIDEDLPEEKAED
Catalogue of pKi values
# pKi is unitless: minus log10 of the molar concentration; print number only

- molecular_string: "CCCCn1c(=O)c2c(nc3n2CCCN3CCc2ccc(O)cc2)n(CCCC)c1=O"
  pKi: 6.74
- molecular_string: "CCCCn1c(=O)c2c(nc3n2CCCN3c2ccc(OCCN(CC)CC)cc2)n(CCCC)c1=O"
  pKi: 6.86
- molecular_string: "CCCn1c(=O)c2c(nc3n2CCCN3c2ccc(OCCN3CCCCC3)cc2)n(CCC)c1=O"
  pKi: 6.60
- molecular_string: "CCCn1c(=O)c2c(nc3n2CCCN3c2ccc(OCCN(CC)CC)cc2)n(CCC)c1=O"
  pKi: 6.25

Let us examine a further case.
What does the data say about its pKi? Entry: CCCCn1c(=O)c2c(nc3n2CCCN3c2ccc(O)cc2)n(CCCC)c1=O
6.76

----------
system_name: Adenosine receptor A2b (Homo sapiens)
Sequence (P29275 whole entry): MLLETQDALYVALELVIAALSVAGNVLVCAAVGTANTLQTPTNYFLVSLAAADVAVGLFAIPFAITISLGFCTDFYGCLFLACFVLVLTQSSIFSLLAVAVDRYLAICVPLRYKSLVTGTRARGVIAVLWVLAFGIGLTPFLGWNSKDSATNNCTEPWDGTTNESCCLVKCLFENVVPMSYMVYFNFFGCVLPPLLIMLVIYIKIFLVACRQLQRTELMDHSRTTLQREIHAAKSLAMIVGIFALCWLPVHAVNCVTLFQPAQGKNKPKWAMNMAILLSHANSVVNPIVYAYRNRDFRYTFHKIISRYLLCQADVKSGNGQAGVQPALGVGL
test_method_notes: Displacement of [3H]PSB-603 from recombinant human adenosine receptor A2b expressed in CHO cell membranes
pKi: −log10 of the molar value.
Catalogue of pKi values

- molecular_string: "CCCCn1c(=O)c2c(nc3n2CCCN3c2ccc(OCCN3CCCC3)cc2)n(CCCC)c1=O"
  system_name: "Adenosine receptor A2b (Homo sapiens)"
  result_value: "< 6.00"
- molecular_string: "CCCn1c(=O)c2c(nc3n2CCCN3c2ccc(OCCN(C)C)cc2)n(CCC)c1=O"
  system_name: "Adenosine receptor A2b (Homo sapiens)"
  result_value: "< 6.00"
- molecular_string: "CCCn1c(=O)c2c(nc3n2CCCN3CCc2ccc(OCCN(CC)CC)cc2)n(CCC)c1=O"
  system_name: "Adenosine receptor A2b (Homo sapiens)"
  result_value: 6.47
- molecular_string: "Cn1c(=O)c2c(nc3n2CCCN3CCc2ccc(OCCN3CCCC3)cc2)n(C)c1=O"
  system_name: "Adenosine receptor A2b (Homo sapiens)"
  result_value: "< 6.00"
- molecular_string: "CCCn1c(=O)c2c(nc3n2CCCN3c2ccc(OCCN(CC)CC)cc2)n(CCC)c1=O"
  system_name: "Adenosine receptor A2b (Homo sapiens)"
  result_value: "< 6.00"

What does the data say about its pKi? Entry: CCCCn1c(=O)c2c(nc3n2CCCN3CCc2ccc(OCCN3CCOCC3)cc2)n(CCCC)c1=O
6.47

Another molecule to check: Cn1c(=O)c2c(nc3n2CCN(CCc2ccc(OCCN4CCCCC4)cc2)C3)n(C)c1=O
< 6.00

Another molecule to check: Cn1c(=O)c2c(nc3n2CCCN3c2ccc(OCCN3CCOCC3)cc2)n(C)c1=O
< 6.00
